target: hGIPR (Homo sapiens, UniProt P48546); experiment: Functional cAMP activity in the presence of 1% HSA; assay type: cell-based; conditions: read-out: cAMP Rel EC50, hGIPR
Sequence (P48546 22-466): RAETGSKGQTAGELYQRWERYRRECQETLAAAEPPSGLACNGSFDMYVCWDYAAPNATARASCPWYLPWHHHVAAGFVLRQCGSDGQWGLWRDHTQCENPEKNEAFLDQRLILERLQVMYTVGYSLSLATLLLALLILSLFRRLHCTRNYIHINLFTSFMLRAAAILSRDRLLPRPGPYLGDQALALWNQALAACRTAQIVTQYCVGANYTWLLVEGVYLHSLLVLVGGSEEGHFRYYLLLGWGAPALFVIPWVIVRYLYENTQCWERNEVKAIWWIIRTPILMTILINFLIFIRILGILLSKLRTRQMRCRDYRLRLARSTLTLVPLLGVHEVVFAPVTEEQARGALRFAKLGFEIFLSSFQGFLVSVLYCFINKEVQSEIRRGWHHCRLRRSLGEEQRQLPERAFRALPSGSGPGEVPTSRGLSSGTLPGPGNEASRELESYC
pEC50: −log10 of the molar value. Starred links: 1 amine or outer side, 2 acyl side, 3 side chain; linkers in the order of their positions; H or OH if unused. Non-standard residues stand in square brackets, D forms with d. Groups on a side chain read outwards from the residue. *: point of attachment. C18 diacid = O=C(O)CCCCCCCCCCCCCCCCC(=O)*; γGlu = O=C(O)[C@H](CCC(=O)[*:2])N[*:1]; αMe4Pal = C[C@](N)(Cc1ccncc1)C(=O)O; αMeY = C[C@](N)(Cc1ccc(O)cc1)C(=O)O; 4Pal = N[C@@H](Cc1ccncc1)C(=O)O; αMeL = CC(C)C[C@](C)(N)C(=O)O; Orn = NCCC[C@H](N)C(=O)O; Aib = CC(C)(N)C(=O)O
Rule: pEC50 under 8 gives -1, otherwise 1.

IN: Does pEC50 meet or surpass 8 for H-Y[Aib]QGTFTSD[4Pal]SQ[αMeL]LD[Orn]K([γGlu-γGlu-C18 diacid])AQ[αMe4Pal]AFIE[αMeY]LIEGGPSSGAPPPSGSEE-NH2 [Example 1043] ?
OUT: -1
